Assay: Drug concentrations obtained using EGCG at 50 mg per ml (microscopic check for particulates)
Format: physicochemical
Settings: under a microscope
OUTCOME MEASURE: Particulates present

MOLECULE | OUTCOME MEASURE | VALUE
COc1cc(/C=C/C(=O)CC(=O)/C=C/c2ccc(O)c(OC)c2)ccc1O [curcumin] | Particulates present | no
C[C@@H]1[C@H](O)[C@@H](C)/C=C/C=C/CC/C=C/C=C/C=C/C=C/C(O[C@H]2O[C@H](C)[C@@H](O)[C@H](N)[C@@H]2O)CC2O[C@](O)(CC(O)C(O)CCC(O)CC(O)CC(O)CC(=O)O[C@H]1C)CC(O)C2C(=O)O (stereo partly drawn) [nystatin] | Particulates present | very
COc1ccc([C@@H]2CC(=O)c3c(O)cc(O)cc3O2)cc1O [hesperetin] | Particulates present | no
O=c1c(O)c(-c2ccc(O)c(O)c2)oc2cc(O)cc(O)c12 [quercetin] | Particulates present | no
C[C@@H]1[C@H](O)[C@@H](C)/C=C/C=C/C=C/C=C/C=C/C=C/C=C/[C@H](O[C@@H]2O[C@H](C)[C@@H](O)[C@H](N)[C@@H]2O)C[C@@H]2O[C@](O)(C[C@@H](O)C[C@@H](O)[C@H](O)CC[C@@H](O)C[C@@H](O)CC(=O)O[C@H]1C)C[C@H](O)[C@H]2C(=O)O [amphotericin, amphotericin B] | Particulates present | no
CC1=CC(=O)c2c(O)cccc2C1=O [plumbagin] | Particulates present | no

====

Test: Solubility of drug in EGCG or tannic acid solutions (dried down, PBS or water added, 0.22 micron filtered, HPLC or absorbance)
Settings: tannic acid solution (500 mg/ml) in water, aqueous with cosolvent or surfactant or cyclodextrin, thermodynamic from solid, drug concentration solubilised at maximum tannic acid concentration, tannic acid 500 mg/ml, water
OUTCOME MEASURE: solubility

SMILES STR | VALUE
CO[C@H]1C[C@@H]2CC[C@@H](C)[C@@](O)(O2)C(=O)C(=O)N2CCCC[C@H]2C(=O)O[C@H]([C@H](C)C[C@@H]2CC[C@@H](O)[C@H](OC)C2)CC(=O)[C@H](C)/C=C(\C)[C@@H](O)[C@@H](OC)C(=O)[C@H](C)C[C@H](C)/C=C/C=C/C=C/1C | ~1500 µg/mL

====

Test: Solubility of drug in EGCG or tannic acid solutions (dried down, PBS or water added, 0.22 micron filtered, HPLC or absorbance)
Conditions: EGCG solution (200 mg/ml) in PBS, aqueous with cosolvent or surfactant or cyclodextrin, thermodynamic from solid, drug concentration solubilised at maximum EGCG concentration, EGCG 200 mg per ml, PBS
Listed here are compounds together with their documented solubility.

COMPOUND | solubility
CO[C@H]1C[C@@H]2CC[C@@H](C)[C@@](O)(O2)C(=O)C(=O)N2CCCC[C@H]2C(=O)O[C@H]([C@H](C)C[C@@H]2CC[C@@H](O)[C@H](OC)C2)CC(=O)[C@H](C)/C=C(\C)[C@@H](O)[C@@H](OC)C(=O)[C@H](C)C[C@H](C)/C=C/C=C/C=C/1C [rapamycin] | ~300 µg/mL
CC(=O)O[C@@]12CO[C@@H]1C[C@H](O)[C@@]1(C)C(=O)[C@H](O)C3=C(C)[C@@H](OC(=O)[C@H](O)[C@@H](NC(=O)OC(C)(C)C)c4ccccc4)C[C@@](O)([C@@H](OC(=O)c4ccccc4)[C@H]21)C3(C)C [docetaxel] | ~1500 µg/mL
